Reported EC50 by item:
Target: T1, monkey antigen protein (monkey CD112R, Uniprot ID: A0A2K5WVV8) (monkey, UniProt A0A2K5WVV8 41-171)
T1 sequence: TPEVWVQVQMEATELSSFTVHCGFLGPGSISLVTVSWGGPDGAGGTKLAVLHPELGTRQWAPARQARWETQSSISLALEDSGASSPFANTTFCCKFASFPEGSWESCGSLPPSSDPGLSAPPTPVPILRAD
Assay: ELISA, monkey antigen protein (as Example 6.1)
Unit pM implied. Number only.

Consider the reported EC50 for these binders:
1) C21 (antibody, human IgG1, kappa, V domains shown) VH: EVQLQQSGAELVKPGASVKLSCTASGFNIKDIYMHWLKQRPEQGLEWIGRVDPTNGNSEYDPRFQGKATLTADTSSNIAYLQLSSLTSEDTAVYYCARFGIYPYFDYWGQGTTLTVSS VL: SIVMTQTPKFLLVSAGDRVTITCKASQSVNKAVVWYQQKPGQSPKLLINYASNRYTGVPDRFTGSGYGTDFTFSISTVQAEDLAVYFCQQDYSSPWTFGGGTKLEIKR; 68
2) C4 (antibody, human IgG1, kappa, V domains shown) VH: EVQLQQSGPELVKPGASVKISCKASGYTFTDYFMNWVKQSHGKSLEWIGDIIPNNDSPNYNQKFKGKATLTVDKSSNTAYMELRSLTSEDSAVYYCASGYFDVWGTGTTVTVSS VL: DIVMTQSPSSLSVSAGEKVTMSCKSSQSLLNSGNQKNFLAWYQQKPGQPPKLLIYGTSTRESGVPDRFTGSGSGTDFTLTISSVQAEDLAVYYCQNDHSYPWTFGGGTKLEIKR; 59
3) C41 (antibody, human IgG1, kappa, V domains shown) VH: EVQLQQSGPELVKPGASVKISCKASGNTFTDYYINWVKQSHGKSLEWIGDIEPNNGGTNYNQKFKGKATLTVDKSSSTAYMELRSLTSEDSAIYYCATLYFDYWGQGTTLTVSS VL: DIVMTQSPSSLSVSAGEKVTMSCKSSQSLLNSGNQKNYLAWYQQKPGQPPKLLIYGASTRESGVPDRFTGSGSGTDFTLTISSVQAEDLAVYYCQNDHSYPFTFGSGTKLEIKR; 52
4) C115 (antibody, human IgG1, kappa, V domains shown) VH: EVQLQQSGAELVKPGASVKLSCTASGFNIEDTYIHWVKRRPEQGLEWIGGIDPAIGNTLYASKFQDMATITADTSSSTAYMQLSSLTSGDTAVYYCARERVYSNTLYYAMDYWGQGTSVTVSS VL: DIVLTQSPASLVVSLGQRATISCRASKSVSISGYSYMHWYQQKPGQPPKLLIYLASNLESGVPARFSGSGSGTDFTLNIHPVEAEDAATYYCQHSRELPPTFGGGTNLEIKR; 34

Query: # lookup: EC50 of C22 (antibody, human IgG1, kappa, V domains shown) VH: EVQLQQSGPEPVKPGASVKISCKASGYTFTDYNIHWVRQSHGKSLEWIGYIYPYNGGAGYNQKFKSKATLTVDSSSSTAYMELRSLTSEDSAVYYCAREELRRDYGMDYWGQGTSVTVSS VL: DIQMTQSPASLSASVGETVTITCRASENIYSYLAWYQQKQGKSPQLLVYNAKTLAEGVPSRFSGSGSGTQFSLKINSLQPEDFGSYYCQHHYGTPYTFGGGTKLETKR
Response: 125

Query: # lookup: EC50 of C116 (antibody, human IgG1, kappa, V domains shown) VH: EVKLVESGGGLVQPGGSLKLSCAVSGFTFSSYTMSWVRQTPEKRLELVAKISNSGGSTNYPDTVKGRFTLSRDNVKNTLYLQMSSLKSEDTAIYYCTRYSWDVYAMDYWGQGTSVTVSS VL: DIQMTQSPASLSASVGETVIITCRASENIYSYLAWYQQKQGKSPHLLVYNAETLVEGVPSRFSGSGSATQFSLKINSLQPEDFGTYYCQHHYGDPTFGGGTKLEIKR
Response: 61

Query: # lookup: EC50 of C9 (antibody, human IgG1, kappa, V domains shown) VH: EVQLQQSGAELVKPGASVKLSCTASGFNIKDIYMHWLKQRPEQGLEWIGRIDPTNGNSEYDPRFRGKATLTADTSSNIAYLQLSSLTSEDTAVYYCARFGIYPYFDYWGQGTTLTVSS VL: GIVMTQTPKFLLVSAGDRVTITCKASQSVNKAVVWYQQKPGQSPKLLISYASNRYTGVPDRFTGSGYGTDFTFSISTVQAEDLAVYFCQQDYSSPWTFGGGTKLEIKR
Response: 70

Query: # lookup: EC50 of C44 (antibody, human IgG1, kappa, V domains shown) VH: QVQLQQSGPELMKPGASLKISCKASGYTFTDSYINWVKQRPGQGLEWIGWIFPGSGSTYYNEKFKGTATLTVDKSSSTAYMLLSSLTSEDSAAYFCARDGGLRGPFDYWGQGTTLTVSS VL: DIQMTQSPSSLSASLGGKVTITCKASQDINKYIAWYQHKPGKGPRLLIHYTSTLQSGIPSRFSGSGSGRDYFFSISNLESEDIATYYCLQYDHLLTFGGGTKLEIKR
Response: 76

Query: # lookup: EC50 of C11 (antibody, human IgG1, kappa, V domains shown) VH: EVQLQQSGPELVKPGASVKISCKASGYTFTDYFMNWVRQSHGKSLEWIGDIHPNNGSPNYNQKFKGKATLTVGKSSSTAYMELRSLTSEDSAVYYCATGYFDVWGTGTTVTVSS VL: DIVMTQSPSSLSVSAGEKVTMSCKSSQSLLNSGNQKNYLAWYQQKPGQPPKLLIYGASTRESGVPDRFTGSGSGTDFTLTISSVQAEDLAVYYCQNDHSYPWTFGGGTKLEIKR
Response: 79

Query: # lookup: EC50 of C110 (antibody, human IgG1, kappa, V domains shown) VH: EVQLQQSGAELAKPGASVKLSCTVSGFNIKDTYIHWVKQRPEQGLEWIGGIDPAIGNTVSASKFQDKATITADTSSSTAYMQLSSLTSGDTAVYYCARERVHSNTLYYAMDYWGQGTSVTVSS VL: DIVLTQSPASLAVSLGQRATISCRASKSVSISGYSYMHWYQQKPGQPPKLLIYLASNLESGVPARFSGSGSGTDFTLNIHPVEEEDAATYYCQHSRELPPTFGGGTKLEIKR
Response: 34

Provenance of the data: patent EP4644419A1
